type: in vivo, rat; conditions: rat, plasma, iv, 10 mg/kg, Terminal half-life, SIDM rats
observable: half-life (min)

# compound, readout_number
measured = [
    ("C[C@@H]1CCN(C(=O)CC#N)C[C@@H]1N(C)c1ncnc2[nH]ccc12 [tofacitinib]", 26.5),
]

----------
type: in vivo, rat; conditions: rat, plasma and urine, iv, 10 mg/kg, CLR, control rats
observable: CL renal (mL/min/kg)

# compound_smiles, observable, readout_number
records = [
    ("C[C@@H]1CCN(C(=O)CC#N)C[C@@H]1N(C)c1ncnc2[nH]ccc12", "CL renal", 2.56),
]

----------
assay type: in vivo, rat; conditions: rat, plasma, iv, 10 mg/kg, CL, SIDM rats

# compound, unit_string, clearance
records = [
    ("C[C@@H]1CCN(C(=O)CC#N)C[C@@H]1N(C)c1ncnc2[nH]ccc12 [tofacitinib]", "mL/min/kg", 60.3),
]
